- Tested on: CtBP / adenovirus E1A interaction (AlphaScreen)
- method.description: qHTS Assay for Inhibitors of the CtBP/E1A Interaction
- measurement.parameters: AlphaScreen GST-E1A/His-CtBP binding, 1536-well
The campaign covered roughly 340,000 compounds. About 1,700 (0.5%) were called active. Not shown: some 2% with an inconclusive outcome. Cut-off read from the data, not from the text of the source: active = activity change below about -65%; inconclusive = mostly about -30% to -63%; inactive = weaker than that. The sample holds actives, similar compounds and a random draw of the others, so the mix is not that of the screen.
Your reply should match one of these outcome classes. active, inactive

[
  {
    "compound": "O=C(Nc1ccc2c(c1)OCCO2)C(C1CC1)N1CCC(Cc2ccccc2)CC1 (stereo not drawn)",
    "assigned.class": "inactive"
  },
  {
    "compound": "NS(=O)(=O)c1ccc(CCNS(=O)(=O)c2cccc3cccnc23)cc1",
    "assigned.class": "inactive"
  },
  {
    "compound": "CC(C)(C)Cc1c(C2CCCCC2)nc2ccc(Br)cn12",
    "assigned.class": "inactive"
  }
]

Could you kindly confirm the outcome this assay logged for OC(c1ccccc1)c1nc(/C=C/c2ccc(C(F)(F)F)cc2)cs1 (stereo not drawn) ? inactive

Could you kindly confirm the outcome this assay logged for `Cc1cc(NC(=O)CSc2ncc(C(F)(F)F)cc2Cl)no1` ? inactive

Could you kindly confirm the outcome this assay logged for CSCCC(c1nnnn1Cc1ccccc1)N1CCN(C/C=C/c2ccccc2)CC1 (stereo not drawn) ? inactive

Could you kindly confirm the outcome this assay logged for `Cc1nc2ccccc2nc1N/N=C/c1ccc(O)cc1O` ? active

src = PubChem BioAssay AID651724
